In this section we review reported CC50 values for a set of compounds.
- assay_text: Cytotoxicity against human HepG2.2.15 cells
- Type: cell-based, HepG2 2.2.15
observation_type: CC50

smiles_notation=CCOCC(=O)O[C@H]1C[C@H]2[C@]3(C)C(=O)C[C@]4(C)[C@@H]([C@@](C)(O)C(=O)CCC(C)(C)OC(C)=O)[C@H](OC(=O)COCC)C[C@@]4(C)[C@@H]3C[C@H]3O[C@]32C(C)(C)[C@@H]1OC(=O)COCC reported_measurement="> 633 µM"
smiles_notation=CCOCC(=O)O[C@H]1C[C@@H]2C(=CC[C@@H]3[C@@]2(C)C(=O)C[C@]2(C)[C@@H]([C@@](C)(O)C(=O)CCC(C)(C)OC(=O)COCC)[C@H](OC(=O)COCC)C[C@@]32C)C(C)(C)[C@@H]1OC(=O)COCC reported_measurement="> 1450 µM"
smiles_notation=COCC(=O)O[C@H]1C[C@H]2[C@]3(C)C(=O)C[C@]4(C)[C@@H]([C@@](C)(O)C(=O)CCC(C)(C)OC(C)=O)[C@H](OC(=O)COC)C[C@@]4(C)[C@@H]3C[C@@H](O)[C@@]2(OC(=O)c2cccc(Cl)c2)C(C)(C)[C@@H]1OC(=O)COC reported_measurement="> 1740 µM"
smiles_notation=CC(C)(O)CCC(=O)[C@](C)(O)[C@H]1[C@H](O)C[C@@]2(C)[C@@H]3CC=C4[C@@H](C[C@H](O)[C@@H](O)C4(C)C)[C@]3(C)C(=O)C[C@]12C reported_measurement="60.6 µM"
smiles_notation=CCC(=O)O[C@H]1C[C@@H]2C(=CC[C@@H]3[C@@]2(C)C(=O)C[C@]2(C)[C@@H]([C@@](C)(O)C(=O)CCC(C)(C)OC(C)=O)[C@H](OC(C)=O)C[C@@]32C)C(C)(C)[C@@H]1OC(=O)CC reported_measurement="> 650 µM"
smiles_notation=CCC(=O)O[C@H]1C[C@@H]2C(=CC[C@@H]3[C@@]2(C)C(=O)C[C@]2(C)[C@@H]([C@@](C)(O)C(=O)CCC(C)(C)OC(C)=O)[C@H](O)C[C@@]32C)C(C)(C)[C@@H]1OC(=O)CC reported_measurement="> 596 µM"
smiles_notation=CC(=O)O[C@H]1C[C@@H]2C(=CC[C@@H]3[C@@]2(C)C(=O)C[C@]2(C)[C@@H]([C@@](C)(O)C(=O)CCC(C)(C)OC(C)=O)[C@H](OC(C)=O)C[C@@]32C)C(C)(C)[C@@H]1OC(C)=O reported_measurement="> 807 µM"
smiles_notation=CCCC(=O)O[C@@H]1[C@@H](O)C[C@@H]2C(=CC[C@@H]3[C@@]2(C)C(=O)C[C@]2(C)[C@@H]([C@@](C)(O)C(=O)CCC(C)(C)OC(C)=O)[C@H](O)C[C@@]32C)C1(C)C reported_measurement="6.3 µM"
smiles_notation=CCC(=O)O[C@H]1C[C@@H]2C(=CC[C@@H]3[C@@]2(C)C(=O)C[C@]2(C)[C@@H]([C@@](C)(O)C(=O)CCC(C)(C)OC(C)=O)[C@H](O)C[C@@]32C)C(C)(C)[C@@H]1O reported_measurement="126 µM"
smiles_notation=CC(=O)O[C@H]1C[C@H]2[C@]3(C)C(=O)C[C@]4(C)[C@@H]([C@@](C)(O)C(=O)CCC(C)(C)OC(C)=O)[C@H](OC(C)=O)C[C@@]4(C)[C@@H]3C[C@H]3O[C@]32C(C)(C)[C@@H]1OC(C)=O reported_measurement="> 961 µM"
smiles_notation=CC(=O)OC(C)(C)CCC(=O)[C@](C)(O)[C@H]1[C@H](O)C[C@@]2(C)[C@@H]3C[C@H]4O[C@@]45[C@@H](C[C@H](O)[C@@H](O)C5(C)C)[C@]3(C)C(=O)C[C@]12C reported_measurement="> 1740 µM"
smiles_notation=CC(=O)OC(C)(C)CCC(=O)[C@](C)(O)[C@H]1[C@H](O)C[C@@]2(C)[C@@H]3CC=C4[C@@H](C[C@H](O)[C@@H](O)C4(C)C)[C@]3(C)C(=O)C[C@]12C reported_measurement="66.2 µM"
smiles_notation=CC(=O)O[C@H]1C[C@@H]2C(=CC[C@@H]3[C@@]2(C)C(=O)C[C@]2(C)[C@@H]([C@@](C)(O)C(=O)CCC(C)(C)OC(C)=O)[C@H](O)C[C@@]32C)C(C)(C)[C@@H]1OC(C)=O reported_measurement="546 µM"
smiles_notation=CC(=O)OC(C)(C)CCC(=O)[C@](C)(O)[C@H]1[C@H](O)C[C@@]2(C)[C@@H]3C[C@@H](O)[C@]4(OC(=O)c5cccc(Cl)c5)[C@@H](C[C@H](O)[C@@H](O)C4(C)C)[C@]3(C)C(=O)C[C@]12C reported_measurement="366 µM"
smiles_notation=CCCC(=O)O[C@H]1C[C@H]2[C@]3(C)C(=O)C[C@]4(C)[C@@H]([C@@](C)(O)C(=O)CCC(C)(C)OC(C)=O)[C@H](OC(=O)CCC)C[C@@]4(C)[C@@H]3C[C@H]3O[C@]32C(C)(C)[C@@H]1OC(=O)CCC reported_measurement="> 618 µM"
smiles_notation=CC(=O)O[C@H]1C[C@H]2[C@]3(C)C(=O)C[C@]4(C)[C@@H]([C@@](C)(O)C(=O)CCC(C)(C)OC(C)=O)[C@H](OC(C)=O)C[C@@]4(C)[C@@H]3C[C@@H](O)[C@@]2(OC(=O)c2cccc(Cl)c2)C(C)(C)[C@@H]1OC(C)=O reported_measurement="> 1050 µM"
smiles_notation=COCC(=O)O[C@H]1C[C@H]2[C@]3(C)C(=O)C[C@]4(C)[C@@H]([C@@](C)(O)C(=O)CCC(C)(C)OC(C)=O)[C@H](OC(=O)COC)C[C@@]4(C)[C@@H]3C[C@H]3O[C@]32C(C)(C)[C@@H]1OC(=O)COC reported_measurement="> 1110 µM"
